Biological target: T1, sIL-6R (soluble IL-6 receptor; SBH Sciences) (human, UniProt P08887 20-365)
T1 construct: also called human IL-6R
T1 sequence: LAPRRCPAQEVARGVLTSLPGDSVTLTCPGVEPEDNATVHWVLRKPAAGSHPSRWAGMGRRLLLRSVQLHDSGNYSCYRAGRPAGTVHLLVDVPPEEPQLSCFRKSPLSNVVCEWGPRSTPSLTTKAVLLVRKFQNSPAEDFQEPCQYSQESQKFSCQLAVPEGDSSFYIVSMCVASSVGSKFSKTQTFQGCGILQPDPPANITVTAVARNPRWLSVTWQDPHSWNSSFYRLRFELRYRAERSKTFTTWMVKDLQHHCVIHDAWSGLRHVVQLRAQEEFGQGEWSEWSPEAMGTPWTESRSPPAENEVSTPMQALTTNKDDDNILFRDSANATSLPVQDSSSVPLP
Experiment: SPR (BIAcore 3000), antibody on chip, sIL-6R analyte, pH 6.0
observable: pKd
Give bare numbers, as −log10 of the molar value.

In: For 237# (antibody, human IgG1, kappa, V domains shown, also called Sample # 237) VH: QVQLQESGPGLVRPSQTLSLTCTVSGYSITSDHAWSWVRQPPGRGLEWIGYISYSGMTTYNPSLKSRVTMLRDTSKNQFSLRLSSVTAADTAVYYCARCLARTTAMDYWGQGSLVTVSS VL: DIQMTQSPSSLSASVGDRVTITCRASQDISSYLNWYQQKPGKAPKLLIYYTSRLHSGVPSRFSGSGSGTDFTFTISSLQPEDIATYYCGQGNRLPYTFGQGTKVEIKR , what is its reported pKd?
Out: 9.80

Value source: patent US20190315854A1
